Test system: Amaranthus retroflexus
Assay: Herbicidal activity against Amaranthus retroflexus assessed as inhibition of fresh weed plant weight at 750 g/ha using pre-emergence treatment protocol
Assay type: functional
Provide the reported inhibition at 750 g/ha of each item.
Numbers only here, please. The scale is %.

Any idea what inhibition at 750 g/ha was measured for C#CCOc1cc(-n2nnc3c(cnn3CC=C)c2=O)c(F)cc1Cl ?
41

Any idea what inhibition at 750 g/ha was measured for C#CCN1C(=O)COc2cc(F)c(-n3nnc4c(cnn4CCC)c3=O)cc21 ?
100

Any idea what inhibition at 750 g/ha was measured for C=CCN1C(=O)COc2cc(F)c(-n3nnc4c(cnn4CCC)c3=O)cc21 ?
100

Any idea what inhibition at 750 g/ha was measured for C=CCN1C(=O)COc2cc(F)c(-n3nnc4nn(CC=C)cc4c3=O)cc21 ?
100

Any idea what inhibition at 750 g/ha was measured for C#CCOc1cc(-n2nnc3nn(CC=C)cc3c2=O)c(F)cc1Cl ?
93.4

Any idea what inhibition at 750 g/ha was measured for C=CCOc1cc(-n2nnc3nn(CC=C)cc3c2=O)c(F)cc1Cl ?
100

Any idea what inhibition at 750 g/ha was measured for C=CCOc1cc(-n2nnc3c(cnn3CC=C)c2=O)c(F)cc1Cl ?
34.4

Any idea what inhibition at 750 g/ha was measured for C#CCN1C(=O)COc2cc(F)c(-n3nnc4c(cnn4C)c3=O)cc21 ?
100

Any idea what inhibition at 750 g/ha was measured for C=CCN1C(=O)COc2cc(F)c(-n3nnc4nn(CCC)cc4c3=O)cc21 ?
100

Any idea what inhibition at 750 g/ha was measured for C#CCN1C(=O)COc2cc(F)c(-n3nnc4c(cnn4CC=C)c3=O)cc21 ?
100

Any idea what inhibition at 750 g/ha was measured for CCCN1C(=O)COc2cc(F)c(-n3nnc4c(cnn4C)c3=O)cc21 ?
95.3

Any idea what inhibition at 750 g/ha was measured for C#CCN1C(=O)COc2cc(F)c(-n3nnc4nn(CCC)cc4c3=O)cc21 ?
100

Any idea what inhibition at 750 g/ha was measured for C=CCN1C(=O)COc2cc(F)c(-n3nnc4c(cnn4CC=C)c3=O)cc21 ?
100

Any idea what inhibition at 750 g/ha was measured for C#CCN1C(=O)COc2cc(F)c(-n3nnc4nn(CC=C)cc4c3=O)cc21 ?
100
